protocolDetails: Solubility of the compound at pH 7.95
Type: physicochemical
reportedConditions: buffer
recordedMetric: solubility (µg/mL)
Number in µg/mL, nothing else.

input: Which measured solubility value corresponds to `Cc1ncc2n1-c1ccc(Cl)cc1C(c1ccccc1F)=NC2` ?
output: 55

###

protocolDetails: Solubility of the compound in 0.1 M phosphate buffer at 600 uM at pH 7.4 after 24 hrs by LC/MS/MS analysis
reportedConditions: buffer, pH 7.4
For each of the compounds below, state its solubility at 24 h, 600 µM.
Numbers only; they are read as µM.

input: So what does the record say about solubility at 24 h, 600 µM for O=C1Nc2ccc(Cl)cc2C(c2ccccc2Cl)=NC1O (configuration not stated) ?
output: 24

input: Repeat with `O=C1CN=C(c2ccccc2Cl)c2cc([N+](=O)[O-])ccc2N1`
output: 30.2

input: Record: `OCCOCCN1CCN(C2=Nc3ccccc3Sc3ccccc32)CC1`
output: 310

Just for reference, ChEMBL document CHEMBL1287767 is where these values come from.
